The entries below come with measured Survival (days) 10 mg/kg SSV po values attached.
System: ANKA strain of P. berghei
Test: Single dose STI in vivo screen in infected mice
Design: species or system Plasmodium berghei
Settings: single 10 mg/kg po in SSV; untreated 6-7 days

COMPOUND	QUANTITY_UNIT	Survival (days) 10 mg/kg SSV po
[O-][n+]1ccccc1SC[C@H]1CC[C@]2(CC1)OO[C@]1(O2)C2CC3CC(C2)CC1C3	days	8.6
c1cncc(NC[C@H]2CC[C@]3(CC2)OO[C@]2(O3)C3CC4CC(C3)CC2C4)c1	days	8.8
NC[C@H]1CC[C@@]2(CC1)OOC1(O2)C2CC3CC(C2)CC1C3 (stereo partly shown)	days	11.3
CCOC(=O)NC[C@H]1CC[C@]2(CC1)OO[C@]1(O2)C2CC3CC(C2)CC1C3	days	13.4
